Cited source for all entries: patent US8785638B2

experiment: Cytotoxicity in mock-infected MT-4 cells (MTT); format: cell-based; conditions: human, 50% cytotoxic concentration
The label satisfied is reserved for CC50 strictly under 70 µM; not satisfied covers values equal to or above it.

// known answers, use as guide
CCC[C@@H](C(=O)O)c1c(C)nc2sc3c(c2c1-c1ccc(C)cc1)CCCC3 :: not satisfied
CCc1sc2nc(C)c(CC(=O)O)c(-c3ccc(C)cc3)c2c1C :: satisfied
COCC(C(=O)O)c1c(C)nc2sc3c(c2c1-c1ccc(C)cc1)CCC3 (stereo not drawn) :: not satisfied
CCCC(C(=O)O)c1c(C)nc2sc3c(c2c1-c1ccc(Cl)cc1)CCC3 (stereo not drawn) :: satisfied
Cc1ccc(-c2c(C(OC(C)(C)C)C(=O)O)c(C)nc3sc4c(c23)CCCC4)cc1 (stereo not drawn) :: not satisfied
Cc1ccc(-c2c(C(CCCC(F)(F)F)C(=O)O)c(C)nc3sc4c(c23)CCCC4)cc1 (stereo not drawn) :: satisfied

### Prompt # TODO verify CC50 < 70 µM strictly for this compound: CCCC(C(=O)O)c1c(C)nc2sc3c(c2c1-c1ccccc1)CCC3 (stereo not drawn)
### Response not satisfied

### Prompt Lab note: confirm whether the reported CC50 for this compound is below 70 µM, equality not counting. compound: CCCC(C(=O)O)c1c(C)nc2scc(-c3ccccc3)c2c1-c1ccc(C)cc1 (stereo not drawn)
### Response satisfied
